Molecular target: Prostaglandin D2 receptor 2 (Homo sapiens)
Sequence (Q9Y5Y4 whole entry): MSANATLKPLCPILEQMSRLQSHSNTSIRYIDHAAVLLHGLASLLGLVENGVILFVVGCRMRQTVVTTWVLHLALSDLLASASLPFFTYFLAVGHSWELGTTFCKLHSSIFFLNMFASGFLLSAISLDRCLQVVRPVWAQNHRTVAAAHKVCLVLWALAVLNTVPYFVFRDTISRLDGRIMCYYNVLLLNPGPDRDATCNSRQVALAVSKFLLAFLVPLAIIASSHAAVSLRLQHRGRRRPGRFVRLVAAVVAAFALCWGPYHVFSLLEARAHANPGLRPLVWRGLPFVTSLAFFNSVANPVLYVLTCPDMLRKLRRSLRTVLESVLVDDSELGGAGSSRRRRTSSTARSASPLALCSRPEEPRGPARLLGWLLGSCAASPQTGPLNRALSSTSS
Test: Antagonist activity at human CRTH2 receptor expressed in human KB8 cells assessed as inhibition of PGD2-induced increase in intracellular Ca2+ concentration
Assay type: functional, cell-based
So basically: is IC50 under 200 nM? Then rule met. Not under? Then rule not met.

Some entries whose results are on file:
O=C(O)Cc1cnc(C(=O)c2ccc(OCc3ccc(Cl)c(Cl)c3)cc2)c2ccccc12 : rule met
O=C(O)Cc1cnc(C(=O)c2ccc(NC(=O)/C=C/c3ccc(Cl)c(Cl)c3)cc2)c2ccccc12 : rule met
O=C(O)Cc1cnc(C(=O)c2ccc(NC(=O)c3ccccc3)cc2)c2ccccc12 : rule met

Determine if O=C(O)Cc1cnc(C(=O)c2ccc(NC(=O)c3ccc(C(F)(F)F)cc3)cc2)c2ccccc12 shows IC50 strictly lower than 200 nM. rule met

Determine if O=C(O)Cc1cnc(C(=O)c2ccc(NC(=O)c3ncccn3)cc2)c2ccccc12 shows IC50 strictly lower than 200 nM. rule not met
